Overview of reported EC50 across a group of compounds:
# System: THP-1 viability, CellTiter-Glo luminescence, 72 h
# method.description: PubChem AID 2252

compound	EC50
Cc1cnc(C(=O)Nc2nnc(C)s2)cn1	< 0.1 µM
COc1ccc(Cc2nnc(N/N=C/c3ccc(O)cc3)[nH]c2=O)cc1OC	0.57 µM
CNCCCC1c2ccccc2C=Cc2ccccc21	24.5 µM
CC(Oc1ccc(Br)cc1)c1nc2c3ccccc3nc(=S)n2[nH]1 (stereo not drawn)	17.9 µM
O=C(/C=C/c1ccccc1)NNC(=O)c1ccco1	< 0.1 µM
C/C(=N\N=C(N)N)c1ccc(Cl)c(Cl)c1	13.3 µM
Cc1cc([N+](=O)[O-])cc(/C=N\NC(=O)C2COc3ccccc3O2)c1O (stereo not drawn)	14.3 µM
O=S1(=O)Nc2c(ccc3cccnc23)-c2ccccc21	1.2 µM
CCCCc1ccc2[nH]cc(CCN)c2c1	7.81 µM
CCOC(=O)N1CCN(C(=S)NC(=O)c2ccc(Br)cc2)CC1	< 0.1 µM
O=C(NNC(=S)NC(=O)c1ccccc1)c1ccc(O)cc1	14.3 µM
CCCN1CCC(NCc2cn(C)nc2-c2ccc(Oc3ccccc3)cc2)CC1	9.72 µM
Cc1cc([N+](=O)[O-])nn1CC(=O)N/N=C/c1ccccc1O	6.62 µM
CCN1/C(=C/c2cc[n+](C)cc2)C=Cc2cc(C)ccc21	6.78 µM
Oc1ccc(C[C@@H]2CNCCN2CCCCC2CCCCC2)cc1	8.53 µM
NC1=NC2(CCCCC2)N=C(Nc2ccc(Br)cc2)N1	2.39 µM
CCN1CCCC1CNC(=O)C1CCN(Cc2nc(-c3cccc(Br)c3)oc2C)CC1 (stereo not drawn)	12.4 µM
O=c1[nH]cc(F)c(=O)[nH]1	6.24 µM

* * *

# System: THP-1 viability, CellTiter-Glo luminescence, 72 h
# method.description: PubChem AID 2252
pEC50: −log10 of the molar value.
Overview of reported pEC50 across a group of compounds:

compound	pEC50
Cc1oc(/N=C/c2ccc(O)cc2O)c(C#N)c1C	> 7.00
O=C(CCN1Cc2ccccc2C1)c1ccc2c(c1)OCCO2	4.72
Oc1ccccc1Nc1nc(NCc2ccco2)c2ccccc2n1	4.90
CCOc1ccc(N2C(=O)CN(O)C=C3N=c4ccccc4=C32)cc1	4.41
CCN(CCC(=O)Nc1ccc(Br)c(C)c1)Cc1ccccc1	4.86
Cc1ccc(S(=O)(=O)NC(C)(C)CSc2nnc(N)s2)cc1	> 7.00
c1cncc(CSc2ccc(-c3cccs3)nn2)c1	4.45
CCOc1ccc(Nc2c3ccccc3nc3ccccc23)cc1	5.60
Cc1ccc(-c2nc(C(=O)NCCCN(C)C)cc3c2[nH]c2ccccc23)cc1	4.97
CN1CCN(C(c2ccc(Cl)cc2)c2cc(Cl)c3cccnc3c2O)CC1 (stereo not given)	5.51
COc1cc2c(cc1O)[C@H](Cc1ccc(Oc3cc(C[C@@H]4NCCc5cc(OC)c(O)cc54)ccc3O)cc1)NCC2	4.32
Cc1nc(N)nc(N)c1CCCc1ccc(Cl)c(Cl)c1	5.24
COc1ccc(Nc2c3ccccc3nc3ccccc23)cc1	5.05
CSc1ccc2c(c1)C(N1CCN(C)CC1)Cc1ccc(F)cc1S2 (stereo not given)	5.25
O=C(Nc1ccc(Nc2ccncc2)cc1)c1ccc([N+](=O)[O-])cc1	4.92
Oc1ccc(CN2CCN(Cc3ccccc3)CC2)c2cccnc12	5.00
c1cc2c(cc1Oc1nc(N3CCOCC3)nc(N3CCOCC3)n1)OCO2	> 7.00
CCN(CC)CCSc1nnc2c3ccccc3n(Cc3ccccc3)c2n1	4.58
Cc1c(CCOC(=O)C2C3CC4CC(C3)CC2C4)sc[n+]1CC(=O)c1ccc(Br)cc1 (stereo not given)	5.20
Nc1nonc1-n1nnc(C(=O)N/N=C/c2ccccc2O)c1CN1CCCC1	5.05
CN1CCCN(C(c2ccccc2)c2ccc(Cl)cc2)CC1 (stereo not given)	5.05
COC(=O)C1=C(C)N(Cc2ccccc2)C(=NCc2cccc(C(F)(F)F)c2)N[C@H]1c1cccc(F)c1	5.28
O=C(CSc1cccc2cccnc12)Nc1ccc(S(=O)(=O)N2CCOCC2)cc1	4.61
CCOC(=O)C1=C(c2ccccc2)NC(N)=NC1c1ccc(OCc2ccc(C(=O)OC)cc2)cc1 (stereo not given)	5.12
O=C1c2ccccc2C(=O)N1CCCP(=O)(O)CCc1ccccc1	> 7.00
CCCCn1c(NS(=O)(=O)c2ccccc2)c(C(=O)OCC)c2nc3ccccc3nc21	4.70
OC(CNCCc1ccc(Cl)cc1)COc1cc(Cl)ccc1Cl (stereo not given)	4.53
CC(C)(C)c1ccc(OCCCNC2CCCC2)cc1	4.70
O=C(Nc1nnc(C2COc3ccccc3O2)o1)c1ccc(F)cc1 (stereo not given)	4.77
COc1ccc2nc(C)cc(Nc3ccc(N4CCOCC4)cc3)c2c1	4.34
Cc1ccc(NC(=O)CS(=O)CC(=O)Nc2ccccc2-c2ccc(C)o2)cc1 (stereo not given)	4.66
CN(CC(=O)Nc1ccc(F)c(F)c1F)c1cnccn1	4.71
O=C(NCc1cccnc1)c1ccc(COc2ccc(Cl)cc2)cc1	4.36
CCCCCCCCNC(C)C(O)c1ccc(SC(C)C)cc1 (stereo not given)	5.45
Oc1c(Br)cc(Br)cc1Oc1ccc(Br)cc1Br	4.57

* * *

Overview of reported pEC50 across a group of compounds:
# Test system: THP-1 viability, CellTiter-Glo luminescence, 72 h
# method.description: PubChem AID 2252
pEC50: −log10 of the molar value.

compound	pEC50
N#CC1=C2N=C(N)c3ccccc3N2C2=C(C(=O)CCC2)C1c1cccc(Cl)c1 (configuration not stated)	4.57
O=C(COc1ccc(Br)cc1CNCCc1ccccc1)NCc1ccccc1	4.98
CN(C)CCCNc1cc(C(C)(C)C)nc2c(-c3ccccc3)cnn12	5.19
Brc1ccc2c(c1)C(OC1CN3CCC1CC3)c1ccccc1CS2 (configuration not stated)	5.08
CC(C)N1CCc2c(sc(NC(=O)c3ccc(S(=O)(=O)N4CCc5ccccc54)cc3)c2C(N)=O)C1	5.07
CN(C)CC/C=C1\c2ccccc2Sc2cc(F)c(Cl)cc21	4.97
Cc1ccc(C(=O)NCC(=O)NCCc2ccc(S(N)(=O)=O)cc2)s1	> 7.00

* * *

# Tested on: THP-1 viability, CellTiter-Glo luminescence, 72 h
# method.description: PubChem AID 2252

molecule	EC50
NC1=NC[C@@H](Cc2ccc(O)cc2)N1CCc1cc(C(F)(F)F)cc(C(F)(F)F)c1	32.3 µM
COc1ccc(C(C(=O)Nc2ccc(C(C)C)cc2)N(Cc2ccco2)C(=O)CC2NC(=O)NC2=O)cc1 (stereo not given)	31.9 µM
CCCCCOc1ccc(CSC2=NCCN2)cc1[N+](=O)[O-]	20 µM
N=c1n(CCN2CCCCC2)c2ccccc2n1CC(O)c1ccc(Cl)c(Cl)c1 (stereo not given)	4.6 µM
CC(=O)Nc1ccc(NC(=O)CSc2ccc(-c3ccco3)nn2)cc1	< 0.1 µM

* * *

Overview of reported EC50 across a group of compounds:
# System: THP-1 viability, CellTiter-Glo luminescence, 72 h
# method.description: PubChem AID 2252

compound	EC50
C#CCOCCOCCOCCNc1nc(N2CCN(C(=O)CCCCCCCCCCNC(=O)[C@H](CCCCN)n3cc(C)nn3)CC2)nc(N2CCN(C(=O)CCCCCCCCCCNC(=O)[C@H](CO)n3cc(CCCSC)nn3)CC2)n1	10.4 µM
CN(C)CCNC(=O)/C(=C/c1ccc(-c2ccc(Cl)cc2)o1)NC(=O)c1ccccc1	11.3 µM
O=C(Nc1cccc(C2=NCCN2)c1)Nc1cccc(C2=NCCN2)c1	13.2 µM
C#CCOCCOCCOCCNc1nc(N2CCN(C(=O)CCCCCCCCCCNC(=O)[C@H](CCCCN)n3cc(CCO)nn3)CC2)nc(N2CCN(C(=O)CCCCCCCCCCNC(=O)[C@H](CCCCN)n3cc(C[C@@H](C)CC)nn3)CC2)n1	12.9 µM
CCc1nc(N)nc(N)c1-c1ccc(Cl)cc1	10.5 µM
OC(CNCC1CCCO1)Cn1c2ccc(Cl)cc2c2cc(Cl)ccc21 (stereo unspecified)	12.9 µM
CC(C)(C)c1ccc(OCCCCCCN2CCNCC2)cc1	13.8 µM
O=C(Nc1nc(-c2ccccn2)cs1)c1ccc(Br)s1	1.19 µM
Oc1ccc(C=Nc2cccc3ncccc23)c(O)c1	3.33 µM
CCc1ccc2c(c1)CCCN2C(=O)c1ccccc1C(=O)O	38.3 µM
CCN1CCN(C2=C(NS(=O)(=O)c3ccc(Br)cc3)C(=O)c3ccccc3C2=O)CC1	18.2 µM
O=C(CCN1CCN(c2ccccc2F)CC1)c1ccc(Br)cc1	17 µM
CCc1nnc(NS(=O)(=O)c2ccc(N=Cc3c(C)[nH]n(-c4ccc(C)cc4)c3=O)cc2)s1	29.3 µM
O=C1C=CC(=O)N1CCCCCCN1C(=O)C=CC1=O	3.29 µM
C#CCOCCOCCOCCNc1nc(N2CCN(C(=O)CCCCCCCCCCNC(=O)[C@H](CCCCN)n3cc(C)nn3)CC2)nc(N2CCN(C(=O)CCCCCCCCCCNC(=O)[C@H](CCCN=C(N)N)n3cc(C[C@@H](C)CC)nn3)CC2)n1	5.13 µM
c1ccc2c(c1)OC(CCCN1CCCCC1)c1ccccc1S2 (stereo unspecified)	21.8 µM
O=C(Nc1nnc(-c2cccs2)o1)c1cccc(C(F)(F)F)c1	14.3 µM
Oc1c(CN2CCCCC2)cc(Br)c2cccnc12	2.65 µM
COc1ccc(C(=O)NC(=S)NNC(=O)CCc2ccccc2)cc1	6.09 µM
C#CCOCCOCCOCCNc1nc(N2CCN(C(=O)CCCCCCCCCCNC(=O)Cn3cc(CCCCCN)nn3)CC2)nc(N2CCN(C(=O)CCCCCCCCCCNC(=O)[C@H]([C@@H](C)CC)n3cc(CCCCCN)nn3)CC2)n1	14.5 µM
Cc1cc(N2CCC(C)CC2)nc2cccc(O)c12	26.4 µM
